Cited source for all entries: ChEMBL document CHEMBL4627322

Below is a list of entries, each paired with its recorded IC50 value.
Test system: BT-474
assay: cells
Format: functional, cell-based
stated conditions: Homo sapiens, BT-474, 72 h
Description: Antiproliferative activity against human BT474 cells overexpressing HER2 assessed as cell growth inhibition measured after 72 hrs by MTT assay
endpoint name: IC50 (nM)

INSERT INTO assay_data (input_smiles, meas_value) VALUES
  ('CN1CCN(C/C=C/C(=O)N2CCOc3cc4ncnc(Nc5ccc(OCc6cccc(F)c6)c(Cl)c5)c4cc32)CC1', 25),
  ('O=C(/C=C/CN1CCCC1)N1CCCOc2cc3ncnc(Nc4ccc(OCc5cccc(F)c5)c(Cl)c4)c3cc21', 172),
  ('CN(C)C/C=C/C(=O)N1CCOc2cc3ncnc(Nc4ccc(OCc5cccc(F)c5)c(Cl)c4)c3cc21', 21);
